- Assay name: xn = mol fraction of the nth substance listed
- Experimental setup: 313 K; 101.13 kPa; Liquid; Vibrating tube method; x1 = 0.5
± gives the expanded uncertainty stated by the source.
Measurement name: mass density

Would you please look over these solved cases?
molecule="C[N+](C)(C)Cc1ccccc1.[Cl-] [trimethylbenzylammonium chloride] + OCCCCCCO" measured="1113.4 ± 20 kg/m3"
molecule="C[N+](C)(C)Cc1ccccc1.[Cl-] [trimethylbenzylammonium chloride] + CCC(O)CO" measured="1064 ± 20 kg/m3"
molecule="C[N+](C)(C)Cc1ccccc1.[Cl-] [trimethylbenzylammonium chloride] + OCCO" measured="1098 ± 20 kg/m3"

Moving on to another molecule below.
Data request: Please report the recorded mass density for C[N+](C)(C)Cc1ccccc1.[Cl-] [trimethylbenzylammonium chloride] + OCC(O)CO .
Data returned: 1158.4 ± 20 kg/m3
